These data points were gathered from PubChem BioAssay AID330.

# Tested on: P388 leukemia ip, CD2F1 mice, survival T/C
# test name: NCI In Vivo Anticancer Drug Screen. Data for tumor model P388 Leukemia (intraperitoneal) in CD2F1 (CDF1) mice
# conditions: endpoint: median survival time; dose: 200.0 mg/kg/injection; schedule: Q01DX009 (ip); vehicle: saline with Tween-80; higher = longer survival
Inconclusive results and toxic doses are left out.
T/C for assorted compounds

Solved entries (count: 2):
COC(C(OC)N1CCOCC1)N1CCOCC1 (configuration not stated)	113 % of control
COc1ccc2c(c1)C(=O)CC(COS(=O)(=O)c1ccc(C)cc1)C2 (configuration not stated)	99 % of control

Q: Answer with T/C of CC(C)CCC1(CCBr)C(=O)NC(=Nc2ccccc2)NC1=O (configuration not stated) measured for P388 leukemia ip, CD2F1 mice, survival T/C.
Ans: 100 % of control

Q: Answer with T/C of CCc1ccnc(N=C2N=C(Nc3cc(CC)ccn3)c3ccccc32)c1 measured for P388 leukemia ip, CD2F1 mice, survival T/C.
Ans: 97 % of control

###

# Test system: P388 leukemia ip, CD2F1 mice, survival T/C
# test name: NCI In Vivo Anticancer Drug Screen. Data for tumor model P388 Leukemia (intraperitoneal) in CD2F1 (CDF1) mice
# conditions: endpoint: median survival time; dose: 200.0 mg/kg/injection; schedule: Q04DX003 (ip); vehicle: saline with Tween-80; higher = longer survival
Inconclusive results and toxic doses are left out.
T/C for assorted compounds

OC(CC1(O)C(F)(F)C(F)(F)C1(F)F)c1ccccc1 (stereo not given)	90 % of control

Q: Could you please provide reported T/C for COc1nc(NC(C)C)nc(NC(C)C)n1 ? Thanks!
Ans: 104 % of control

Q: Could you please provide reported T/C for CC(=O)NC(CCl)(OC(C)=O)C(=O)OCc1ccc([N+](=O)[O-])cc1 (stereo not given) ? Thanks!
Ans: 120 % of control

Q: Could you please provide reported T/C for C[C@]12CCC(=O)C=C1CC[C@@H]1[C@@H]2[C@@H](O)C[C@@]2(C)[C@H]1CC[C@]2(C)O ? Thanks!
Ans: 100 % of control

Q: Could you please provide reported T/C for ClCCN(CCCl)c1ccc(/C=N/Nc2ccc3ccccc3n2)cc1 ? Thanks!
Ans: 109 % of control

Q: Could you please provide reported T/C for COC1=CC2C3Cc4c(-c5cc(OC)c(O)c6c5CC5C7C=C(OC)C(=O)CC67CCN5C)cc(OC)c(O)c4C2(CCN3C)CC1=O (stereo not given) ? Thanks!
Ans: 106 % of control

Q: Could you please provide reported T/C for Cc1ccc2nc3ccccc3cc2c1 ? Thanks!
Ans: 99 % of control

Q: Could you please provide reported T/C for Cc1ccc(S(=O)(=O)/N=S(/C)c2ccccc2)cc1 (stereo not given) ? Thanks!
Ans: 100 % of control

Q: Could you please provide reported T/C for Clc1c2c(c(Cl)c3c1=Nc1ccc4ccccc4c1S3)=Nc1ccc3ccccc3c1S2 ? Thanks!
Ans: 113 % of control

Q: Could you please provide reported T/C for C[N+](C)(Cn1nc(Cl)c2cc([N+](=O)[O-])ccc21)Cn1nc(Cl)c2cc([N+](=O)[O-])ccc21 ? Thanks!
Ans: 88 % of control

###

# Tested on: P388 leukemia ip, CD2F1 mice, survival T/C
# test name: NCI In Vivo Anticancer Drug Screen. Data for tumor model P388 Leukemia (intraperitoneal) in CD2F1 (CDF1) mice
# conditions: endpoint: median survival time; dose: 100.0 mg/kg/injection; schedule: Q01DX009 (ip); vehicle: Klucel (hydroxypropylcellulose) (HPC); higher = longer survival
Inconclusive results and toxic doses are left out.
T/C for assorted molecules

Solved entries (count: 10):
ClC(c1ccccc1)C1(Cl)C=c2ccccc2=C1 (stereo not given)	109 % of control
CC1=C/N\C(C#N)=C(C#N)/N=C/C(C)=C\N\C(C#N)=C(C#N)/N=C\1	105 % of control
CC1C(c2ccccc2)OCCN1C(N)=S (stereo not given)	101 % of control
CC1(C)CCC23CCC4(C)C(CCC5C6(C)CCC(O)C(C)(C)C6CCC54C)C2C1OC3 (stereo not given)	87 % of control
O=C1C(=O)N(c2cccc(Cl)c2)C(=O)N1Cc1ccccc1	104 % of control
O=C(NC(ON1CCCCC1)C(=O)O)c1ccccc1 (stereo not given)	102 % of control
CCOC(=O)c1ccc(NC(C)=O)cc1	100 % of control
COc1ccc(C2=Nc3ccccc3SC(c3ccc(OC)cc3)C2)cc1 (stereo not given)	96 % of control
O=C1CCc2nc3ccccc3c(=O)n21	96 % of control
NS(=O)(=O)c1ccc(NC(=O)CCl)cc1	121 % of control

Q: Could you please provide reported T/C for Cc1ccc(C)c(NC(=O)Nc2ccc(CCO)cc2)c1 ? Thanks!
Ans: 102 % of control

Q: Could you please provide reported T/C for COc1cc2c(cc1OC)C(=O)CCC2 ? Thanks!
Ans: 106 % of control

###

# Test system: P388 leukemia ip, CD2F1 mice, survival T/C
# test name: NCI In Vivo Anticancer Drug Screen. Data for tumor model P388 Leukemia (intraperitoneal) in CD2F1 (CDF1) mice
# conditions: endpoint: median survival time; dose: 50.0 mg/kg/injection; schedule: Q01DX009 (ip); vehicle: saline with Tween-80; higher = longer survival
# Procedure: The antitumor activity of compounds was measured in mice bearing transplantable tumors. Survival or tumor size were measured and the results are expressed as the measurement made in the treated group (T) divided by the measurement made in the vehicle treated control group (C). The tumor model used in this assay is P388 Leukemia (intraperitoneal) in CD2F1 (CDF1) mice
Toxic doses and inconclusive results are not listed.
endpoint label: T/C

Solved entries (count: 3):
O=C(SCc1ccccc1)c1cccnc1	110 % of control
CC(C)CCC1(CCBr)C(=O)NC(=Nc2ccccc2)NC1=O (centres undefined)	98 % of control
Cc1cc(OC(=O)Nc2c(Cl)cccc2Cl)c(Cl)c(C)c1Cl	112 % of control

Q: Answer with T/C of O=C(NC(=S)c1ccc(Cl)cc1)Nc1ccccc1 measured for P388 leukemia ip, CD2F1 mice, survival T/C.
Ans: 94 % of control

Q: Answer with T/C of CSC1(SC)CCN(C)C1=O measured for P388 leukemia ip, CD2F1 mice, survival T/C.
Ans: 93 % of control

Q: Answer with T/C of COc1ccc(CSc2ncnc3nc[nH]c23)cc1 measured for P388 leukemia ip, CD2F1 mice, survival T/C.
Ans: 87 % of control

Q: Answer with T/C of CC12CCC(=O)C=C1C=CC1C2CCC2(C)C1CCC21CCC(=O)O1 (centres undefined) measured for P388 leukemia ip, CD2F1 mice, survival T/C.
Ans: 94 % of control

Q: Answer with T/C of COc1cc(O)c(C(C)=O)c(O)c1 measured for P388 leukemia ip, CD2F1 mice, survival T/C.
Ans: 100 % of control

Q: Answer with T/C of CCCCCCCN(CCCCCCC)CC(O)c1c(OC)c2ccccc2c2ccccc12 (centres undefined) measured for P388 leukemia ip, CD2F1 mice, survival T/C.
Ans: 88 % of control

###

# System: P388 leukemia ip, CD2F1 mice, survival T/C
# test name: NCI In Vivo Anticancer Drug Screen. Data for tumor model P388 Leukemia (intraperitoneal) in CD2F1 (CDF1) mice
# conditions: endpoint: median survival time; dose: 240.0 mg/kg/injection; schedule: Q01DX005 (ip); vehicle: saline with Tween-80; higher = longer survival
Inconclusive results and toxic doses are left out.
T/C for assorted molecules

CC1Cn2c(nnc2-c2ccccc2O)S1 (configuration not stated)	101 % of control

Q: Could you please provide reported T/C for NC(=O)c1coc2c1C(=O)c1ccc3ccccc3c1CC2 ? Thanks!
Ans: 108 % of control

Q: Could you please provide reported T/C for C(=C\c1ccccn1)/c1ccc(/C=C/c2ccccn2)cc1 ? Thanks!
Ans: 97 % of control

Q: Could you please provide reported T/C for CCCCOC(=O)NC(=O)c1cc2cc(Br)cc(Br)c2oc1=O ? Thanks!
Ans: 92 % of control

Q: Could you please provide reported T/C for O=C1C(O)=C(c2ccccc2)C12CSC1(CS2)C(=O)C(O)=C1c1ccccc1 (configuration not stated) ? Thanks!
Ans: 91 % of control

Q: Could you please provide reported T/C for CCc1c(N2CCOCC2)c(C#N)c2nc3ccccc3n2c1N1CCOCC1 ? Thanks!
Ans: 98 % of control

Q: Could you please provide reported T/C for Nc1nc(=O)nc2[nH]c3c4cccc5cccc(c3nc12)c54 ? Thanks!
Ans: 100 % of control

Q: Could you please provide reported T/C for COc1cc([C@H]2c3c(cc(OC)c(OC)c3OC)CC3COC(=O)[C@@H]32)cc(Br)c1O (some centres not stated) ? Thanks!
Ans: 98 % of control

Q: Could you please provide reported T/C for N#CC(C(=O)CCCC(=O)Nc1cccc([N+](=O)[O-])c1)c1cccc2ccccc12 (configuration not stated) ? Thanks!
Ans: 101 % of control

Q: Could you please provide reported T/C for CC(C)(C)C(=O)CC(=O)C(F)(F)C(F)(F)C(F)(F)F.CC(C)(C)C(=O)CC(=O)C(F)(F)C(F)(F)C(F)(F)F.CC(C)(C)C(=O)CC(=O)C(F)(F)C(F)(F)C(F)(F)F.[Ho] ? Thanks!
Ans: 110 % of control

Q: Could you please provide reported T/C for Cc1ccc2c(c1)NC(=O)CC(c1ccccc1)=N2 ? Thanks!
Ans: 96 % of control

Q: Could you please provide reported T/C for O=C1C(Cl)=C(Nc2cc(Cl)ccc2Cl)C(=O)c2ccccc21 ? Thanks!
Ans: 101 % of control

Q: Could you please provide reported T/C for ClCCCCOC1CCCCO1 (configuration not stated) ? Thanks!
Ans: 105 % of control

Q: Could you please provide reported T/C for Cc1ccc(-c2cn3nc(-c4ccc5c(c4)OCO5)sc3n2)cc1 ? Thanks!
Ans: 87 % of control

Q: Could you please provide reported T/C for Cc1ccc(Nc2nnc(CSc3ccc(Cl)cc3)s2)c(S(=O)(=O)O)c1 ? Thanks!
Ans: 104 % of control

Q: Could you please provide reported T/C for COC(=O)C(=O)C(C)C(=O)C(C)c1nc(NC(=O)Nc2ccc(Cl)cc2)n[nH]1 (configuration not stated) ? Thanks!
Ans: 100 % of control

Q: Could you please provide reported T/C for CCOc1cccc2c1NC(C)=C(C(=O)c1ccccc1)S2 ? Thanks!
Ans: 91 % of control

Q: Could you please provide reported T/C for COc1ccc(Cc2nnc(SC)n2-c2ccc(F)cc2)cc1OC ? Thanks!
Ans: 102 % of control

Q: Could you please provide reported T/C for Oc1cc2c(cc1C(c1ccc(F)cc1)N1CCCCC1)OCO2 (configuration not stated) ? Thanks!
Ans: 115 % of control
